# target.under.test: 20S core particle (CP) proteasome
# test.summary: cell-based or functional assay
Non-standard residues stand in square brackets, D forms with d. dPra = C#CC[C@@H](N)C(=O)O
experimental.readout: EC50, dose-response of 20S CP stimulation (µM)

>  <binder>
cyclo(T[dL]F[dF]R[dA]) (SMILES CC(C)C[C@H]1NC(=O)[C@H]([C@@H](C)O)NC(=O)[C@@H](C)NC(=O)[C@H](CCCNC(=N)N)NC(=O)[C@@H](Cc2ccccc2)NC(=O)[C@H](Cc2ccccc2)NC1=O) [CyPPS1]

>  <endpoint.value>
6.4

$$$$

P: cyclo(T[dPra]F[dF]R[dA]) (SMILES C#CC[C@H]1NC(=O)[C@H]([C@@H](C)O)NC(=O)[C@@H](C)NC(=O)[C@H](CCCNC(=N)N)NC(=O)[C@@H](Cc2ccccc2)NC(=O)[C@H](Cc2ccccc2)NC1=O) [CyPPS14]
Q: cyclo(T[dV]F[dF]R[dA]) (SMILES CC(C)[C@H]1NC(=O)[C@H]([C@@H](C)O)NC(=O)[C@@H](C)NC(=O)[C@H](CCCNC(=N)N)NC(=O)[C@@H](Cc2ccccc2)NC(=O)[C@H](Cc2ccccc2)NC1=O) [CyPPS13]
Inquiry: Hey, which is lower on measured EC50, dose-response of 20S CP stimulation, P or Q ? Refer to your chosen item by its label in the answer.
Reply text: Q
(Q: 4 µM, P: 12.1 µM)
